Test system: RXF-393 human kidney carcinoma cell line
Assay: cells
Conditions: Homo sapiens, RXF 393, 72 h
Measured property: pIC50
Remember, pIC50 is on a log scale: it is -log10 of the molar concentration.

Worked cases, answers included:
CC[C@]1(O)C[C@H]2CN(CCc3c([nH]c4ccccc34)[C@@](C(=O)OC)(c3cc4c(cc3OC)N(C=O)[C@H]3[C@@](O)(C(=O)OC)[C@H](OC(C)=O)[C@]5(CC)C=CCN6CC[C@]43[C@@H]65)C2)C1 = 7.76
Nc1ccn([C@@H]2O[C@H](CO)[C@@H](O)C2(F)F)c(=O)n1 = 6.30

Consider the compound "CC[C@@]1(O)C(=O)OCc2c1cc1n(c2=O)Cc2cc3c(CN(C)C)c(O)ccc3nc2-1" and give its measured pIC50.
6.41

Item "CCC1=C[C@@H]2CN(C1)Cc1c([nH]c3ccccc13)[C@@](C(=O)OC)(c1cc3c(cc1OC)N(C)[C@H]1[C@@](O)(C(=O)OC)[C@H](OC(C)=O)[C@]4(CC)C=CCN5CC[C@]31[C@@H]54)C2" has what recorded pIC50?
5.07

Which pIC50 is reported for this compound? COc1cc([C@@H]2c3cc4c(cc3[C@@H](O[C@@H]3O[C@@H]5CO[C@@H](C)O[C@H]5[C@H](O)[C@H]3O)[C@H]3COC(=O)[C@H]23)OCO4)cc(OC)c1O [Etoposide, etoposide]
4.70

Quick one: pIC50 for "Nc1ccn([C@@H]2O[C@H](CO)[C@@H](O)[C@@H]2O)c(=O)n1" ?
4.30

Would you mind telling me what pIC50 value was observed for "O=c1[nH]cc(F)c(=O)[nH]1" ?
3.52

Any idea what pIC50 was measured for "COc1c(C)cc2c(c1O)[C@@H]1[C@@H]3Cc4c(OC(C)=O)c(C)c5c(c4[C@H](CNC(=O)/C=C/c4cccc(C(F)(F)F)c4)N3[C@@H](O)[C@H](C2)N1C)OCO5" ?
8.27

Would you kindly share the measured pIC50 for "COc1cccc2c1C(=O)c1c(O)c3c(c(O)c1C2=O)C[C@@](O)(C(=O)CO)C[C@@H]3O[C@H]1C[C@H](N)[C@H](O)[C@H](C)O1" ?
6.10

Requested field: pIC50. Item: "COc1cccc2c1C(=O)c1c(O)c3c(c(O)c1C2=O)C[C@@](O)(C(C)=O)C[C@@H]3O[C@H]1C[C@H](N)[C@H](O)[C@H](C)O1"
6.21

Please look up its pIC50: "CN(C)/N=N/c1[nH]cnc1C(N)=O"
3.10
